Measurement Protocol: ADC stability study: % aggregates by SEC after incubation at 37° C. for 168 h
Type: physicochemical
Property: Stab w1 +37° C. % Agg (by SEC) (%)
Answers are plain numbers, in %.

CC[N+](CC)(CC#Cc1ccc(OCCCc2sc(N3CCCc4c3nnc(Nc3nc5ccccc5s3)c4C)nc2C(=O)[O-])c(F)c1)Cc1ccc(NC(=O)[C@H](CCCNC(N)=O)NC(=O)[C@@H](NC(=O)CCOCCN2C(=O)CC(C)C2=O)C(C)C)cc1 (some centres unmarked)
7
Cc1c(Nc2nc3ccccc3s2)nnc2c1CCCN2c1nc(C(=O)[O-])c(CCCOc2ccc(C#CC(C)N3CC[N+](C)(Cc4ccc(NC(=O)[C@H](CCCNC(N)=O)NC(=O)[C@@H](NC(=O)CCOCCN5C(=O)CC(C)C5=O)C(C)C)cc4)CC3)cc2F)s1 (some centres unmarked)
7
Cc1c(Nc2nc3ccccc3s2)nnc2c1CCCN2c1nc(C(=O)O)c(CCCOc2ccc(C#CCN(CCN(C)C)C(=O)OCc3ccc(NC(=O)[C@H](CCCNC(N)=O)NC(=O)[C@@H](NC(=O)CCOCCN4C(=O)CC(C)C4=O)C(C)C)cc3)cc2F)s1 (some centres unmarked)
4
CNCCOCCOCCNC(=O)OC[C@@H]1[C@@H]2CCc3nnn(CCOCCOCCOCC(=O)N[C@H](C(=O)N[C@@H](CCCNC(N)=O)C(=O)Nc4ccc(COC(=O)N(C)CC#Cc5ccc(OCCCc6sc(N(C)c7cc(C)c(Nc8nc9ccccc9s8)nn7)nc6C(=O)O)c(F)c5)cc4)C(C)C)c3CC[C@@H]21 [Ab T - L23C-P7]
4

Query block: Which Stab w1 +37° C. % Agg (by SEC) is reported for this molecule? C=C(C)CCCC[C@](C)(CC(=C)[C@@](C)(CC(=C)CCCCCC1C(=C)CC(C)C1=C)C(C)C)C(=C)Cc1ccc(CCC(=C)C(CCCCC)CCC[C@]23C[C@]4(C)C[C@](C)(C2)C[C@@](CC2C=CC(c5ccc(C(C)c6ccc(CC7=Cc8ccccc8C7)c(C)c6)cc5C(=C)C)=C2C)(C4)C3)cc1 (some centres unmarked)
Result block: 16
